- assay.explanation: NCI Yeast Anticancer Drug Screen. Data for the wt2 strain (AID 169);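 note: 0% = growth of vehicle-treated yeast cultures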
- settings: S. cerevisiae wt2 strain growth inhibition; at 1.2 µM; hits give high values
About 79,000 compounds went through this panel and 15% of them were active in at least one assay; those are over-represented in the sample as a whole.
property.measured: growth inhibition (%)
Give the quantity in %, number only.

[in] Respond only with growth inhibition recorded for O=C1C=C(Cl)C(=O)N1c1cccc(Cl)c1
[out] 30

[in] Respond only with growth inhibition recorded for S=c1sc2c(s1)SCCS2
[out] 1

[in] Respond only with growth inhibition recorded for CCOC(=O)CC1(C(=O)OCC)c2[nH]c3ccccc3c2CCN1Cc1ccccc1 (stereo not given)
[out] -1

[in] Respond only with growth inhibition recorded for CCCCc1nnc(NS(=O)(=O)c2ccc(C)cc2)s1
[out] -28

[in] Respond only with growth inhibition recorded for CC(C)C(C)/C=C\C(C)C1CCC2C3=CC=C4CC(O)CCC4(C)C3CCC21C (stereo not given)
[out] 0

[in] Respond only with growth inhibition recorded for O=[N+]([O-])c1ccc2c(c1)/C(=N/N=C1c3ccccc3Cc3ccccc31)c1cc([N+](=O)[O-])cc([N+](=O)[O-])c1-2
[out] 15

[in] Respond only with growth inhibition recorded for C[C@]12CC[C@H](O)CC1=CC[C@@H]1C2CC[C@]2(C)C(=O)NC(=O)CC12 (stereo not given in full)
[out] -14

[in] Respond only with growth inhibition recorded for COc1cc(O)c(O)c(C(C)(C)C)c1
[out] -1

[in] Respond only with growth inhibition recorded for O=C1CC(=O)c2ccccc21
[out] 0

[in] Respond only with growth inhibition recorded for CC1=CC(=C(c2ccc(N)cc2)c2ccc(N)cc2)C=CC1=N
[out] -18

[in] Respond only with growth inhibition recorded for CNC(=O)OCc1c(COC(=O)NC)c(-c2ccc(Cl)c(Cl)c2)n2c1SCC2
[out] -1

[in] Respond only with growth inhibition recorded for CCc1ccc2c(c1)N(CC(C)CN(C)C)c1ccccc1S2 (stereo not given)
[out] -4

[in] Respond only with growth inhibition recorded for O=C1N=C2SC=C(NC(=S)Nc3ccccc3)N2NC12c1ccccc1-c1ccccc12
[out] 2

###

- assay.explanation: NCI Yeast Anticancer Drug Screen. Data for the bub3 strain (AID 167)
- settings: S. cerevisiae bub3 mutant strain, at 50.0 µM (retest, dose inferred, filed as 5.0)
The panel holds about 79,000 compounds, 15% with a hit somewhere; the sample as a whole holds those more often. The source made the active and inactive calls. No stated cut-off is given here; in the data, active means growth inhibition above about 70%; inactive means the rest.
API: response.call in TRUE = active, FALSE = inactive

[in] Query: recorded result category for CCOC(=O)C#Cc1ccc([N+](=O)[O-])cc1 in this test
[out] FALSE

[in] Query: recorded result category for Cc1cc(C)nc(NS(=O)(=O)c2ccc(Nc3c4ccccc4nc4c(C(=O)NCCO)cccc34)cc2)n1 in this test
[out] FALSE

[in] Query: recorded result category for CC(=O)Nc1ccc2c(c1)-c1ccccc1C2=O in this test
[out] FALSE

[in] Query: recorded result category for O=C(COC(=O)c1ccccc1)c1ccc(Br)cc1 in this test
[out] TRUE

[in] Query: recorded result category for Cc1cc2c3ccccc3c3ccccc3c2nn1 in this test
[out] FALSE

###

The following molecules are listed with their measured growth inhibition values.
- assay.explanation: NCI Yeast Anticancer Drug Screen. Data for the mgt1 strain (AID 153)
- settings: S. cerevisiae mgt1 mutant growth inhibition; at 3.7 µM; hits give high values
This is part of a sample that, as a whole, favours compounds with a hit. Of some 79,000 tested, about 15% had one in any assay.
Give the quantity in %, number only.

[in] Respond only with growth inhibition recorded for Cc1cc(N(CCOS(C)(=O)=O)CCOS(C)(=O)=O)ccc1C=Nc1ccc(-c2nc(Cc3ccccc3)sc2C)cc1
[out] 4

[in] Respond only with growth inhibition recorded for CN1CCN(C(=O)/C=C/C(=O)c2ccccc2)CC1
[out] 10

Then this molecule:
[in] Respond only with growth inhibition recorded for Cc1nc2ccccc2nc1NNc1ccccc1
[out] 3

###

- assay.explanation: NCI Yeast Anticancer Drug Screen. Data for the rad50 strain (AID 155);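 note: 0% = growth of vehicle-only cultures of the same strain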
- settings: S. cerevisiae rad50 strain growth inhibition; at 50.0 µM
Compounds without any hit were thinned out: in the full panel of roughly 79,000, 15% have a hit. Activity calls are given as the source filed them. Cut-off read from the data, not from the text of the source: active = growth inhibition above about 70%; inactive = the rest.
API: response.call in 1.0 (active), 0.0 (inactive)

Reference set, count: 5
[in] Query: recorded result category for CC1=C(SCc2ccccc2)C(=O)c2ccccc2C1=O in this test
[out] 0.0

[in] Query: recorded result category for COC1=C(OC)C(=O)C(Sc2ccc3ccccc3c2)=CC1=O in this test
[out] 1.0

[in] Query: recorded result category for Oc1cccc2cc(Cl)cnc12 in this test
[out] 1.0

[in] Query: recorded result category for CN(C)Cc1cc(N=Nc2ccc(Cl)cc2)ccc1OC(=O)c1ccccc1 in this test
[out] 1.0

[in] Query: recorded result category for Nc1ncc(-c2ccc(Br)cc2)s1 in this test
[out] 1.0

Lab note: next compound to report on.
[in] Query: recorded result category for CC(C)(C)[Si](C)(C)OCC1CCC(n2cnc3c(NC(=O)c4ccccc4)ncnc32)O1 (stereo unspecified) in this test
[out] 1.0

###

- assay.explanation: NCI Yeast Anticancer Drug Screen. Data for the rad50EPP+ strain (AID 151);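 note: 0% = growth of vehicle-treated control cultures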
- settings: S. cerevisiae rad50 mutant strain, at 1.2 µM, hits give high values
About 79,000 compounds went through this panel and 15% of them were active in at least one assay; those are over-represented in the sample as a whole.
property.measured: growth inhibition (%)
Give the quantity in %, number only.

[in] Respond only with growth inhibition recorded for CCC(C)(C)c1ccc(Oc2cccc(C(=O)O)c2)cc1
[out] 8

[in] Respond only with growth inhibition recorded for CCCC/C=C/C(C)(C(=O)OCC)C(=O)OCC
[out] -3

[in] Respond only with growth inhibition recorded for NNC(=O)CCc1cc2ccccc2c2ccccc12
[out] -8

[in] Respond only with growth inhibition recorded for O=C1CC(=O)c2ccccc21
[out] -3

[in] Respond only with growth inhibition recorded for c1ccc(CCN2CCc3ccccc3C2)cc1
[out] -3

New cases:
[in] Respond only with growth inhibition recorded for CS(=O)(=O)OCCN(CCOS(C)(=O)=O)c1ccc(C=Nc2ccc(-c3csc(COc4ccccc4)n3)cc2)cc1
[out] -2

[in] Respond only with growth inhibition recorded for CC1=C(C(=O)NCc2ccccc2)C(c2ccccc2)C(C(=O)NCc2ccccc2)=C(C)N1
[out] -3

###

The following molecules are listed with their measured growth inhibition values.
- assay.explanation: NCI Yeast Anticancer Drug Screen. Data for the rad50EPP+ strain (AID 151);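 note: 0% = growth of vehicle-treated control cultures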
- settings: S. cerevisiae rad50 mutant strain, at 1.2 µM, hits give high values
This is part of a sample that, as a whole, favours compounds with a hit. Of some 79,000 tested, about 15% had one in any assay.
Give the quantity in %, number only.

The examples below pair each entry with its known result.
[in] Respond only with growth inhibition recorded for O=C1NC(SSC2=NNC3(C(=O)N2)c2ccccc2-c2ccccc23)=NNC12c1ccccc1-c1ccccc12
[out] 8

[in] Respond only with growth inhibition recorded for Cc1ccc2c(c1)C1(SC(C)C(=O)N1c1ccc(Cl)cc1)C(=O)N2 (stereo unspecified)
[out] -2

[in] Respond only with growth inhibition recorded for c1ccc2c(c1)sc1c3cnccc3ccc21
[out] 36

New cases:
[in] Respond only with growth inhibition recorded for Nc1nc(N)c2nc(CNc3ccc(C(=O)NC(CCC(=O)O)C(=O)O)cc3F)cnc2n1 (stereo unspecified)
[out] 23

[in] Respond only with growth inhibition recorded for CCC(C)OC(=O)Nc1ccc(C)c(NC(=O)OC(C)CC)c1 (stereo unspecified)
[out] -2

[in] Respond only with growth inhibition recorded for CCCCc1ccc(-n2c(C)c(COC(=O)NC)c(COC(=O)NC)c2C)cc1
[out] -18

###

- assay.explanation: NCI Yeast Anticancer Drug Screen. Data for the sgs1 mgt1 strain (AID 161);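 note: 0% = growth of cultures given vehicle only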
- settings: S. cerevisiae sgs1 mgt1 strain, at 50.0 µM, hits give high values
About 79,000 compounds went through this panel and 15% of them were active in at least one assay; those are over-represented in the sample as a whole.
The following molecules are listed with their measured growth inhibition values.
Give the quantity in %, number only.

The examples below pair each entry with its known result.
[in] Respond only with growth inhibition recorded for O=[N+]([O-])c1cc(F)c(F)cc1Sc1cc(F)c(F)cc1[N+](=O)[O-]
[out] 98.3

[in] Respond only with growth inhibition recorded for CC1=C(SCc2ccccc2)C(=O)c2ccccc2C1=O
[out] 71.3

New cases:
[in] Respond only with growth inhibition recorded for CCCCc1nnc(NS(=O)(=O)c2ccc(C)cc2)s1
[out] 72

[in] Respond only with growth inhibition recorded for Cc1cc(NCCCCCCCCNc2cc(C)nc3cc(N)ccc23)c2ccc(N)cc2n1
[out] 92.1

###

- assay.explanation: NCI Yeast Anticancer Drug Screen. Data for the rad14 strain (AID 159);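 note: 0% = growth of vehicle-treated control cultures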
- settings: S. cerevisiae rad14 strain growth inhibition; at 3.7 µM; hits give high values
The panel holds about 79,000 compounds, 15% with a hit somewhere; the sample as a whole holds those more often.
growth inhibition vs -20%: at or above is condition met, below is condition not met.

[in] growth inhibition >= -20% for CN(C)c1ccc(N=Nc2ccncc2)cc1 ?
[out] condition met

New cases:
[in] growth inhibition >= -20% for Cc1ccc(Sc2ccccc2N)cc1 ?
[out] condition met
